Test system: RBM10 RRM1-ZnF-RRM2 (GST-tagged construct);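 further: 20 pmol protein with 1.5 nmol RNA pool for 30 min at 4°C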
testName: RNAcompete 7-mer binding Z-score; higher = stronger binding preference
Over roughly 16,000 sequences, “Z-score” has its median near -0.37; the highest 2% begin near 3.1. This excerpt belongs to a sample that is enriched for the highest values.
Please provide measured RNAcompete 7-mer binding Z-score for the entries that follow.
Answer as a number with no unit attached.

Challenge: Look up RNAcompete 7-mer binding Z-score: UGGGAAU
Response given: 2.42

Challenge: Look up RNAcompete 7-mer binding Z-score: AGUUUUG
Response given: -0.0707

Challenge: Look up RNAcompete 7-mer binding Z-score: UUGGGUA
Response given: 1.95

Challenge: Look up RNAcompete 7-mer binding Z-score: UUAGUAA
Response given: -0.355

Challenge: Look up RNAcompete 7-mer binding Z-score: UGUAGGG
Response given: 3.34

Challenge: Look up RNAcompete 7-mer binding Z-score: GGGCAGG
Response given: 3.39

Challenge: Look up RNAcompete 7-mer binding Z-score: UUUAGGG
Response given: 1.51

Challenge: Look up RNAcompete 7-mer binding Z-score: GUGCUAG
Response given: 0.268

Challenge: Look up RNAcompete 7-mer binding Z-score: GUGGGUA
Response given: 3.07

Challenge: Look up RNAcompete 7-mer binding Z-score: CCGGCAC
Response given: -0.388

Challenge: Look up RNAcompete 7-mer binding Z-score: GGCCGGU
Response given: 0.279

Challenge: Look up RNAcompete 7-mer binding Z-score: GGGCGGA
Response given: 3.09

Challenge: Look up RNAcompete 7-mer binding Z-score: AGGGAAG
Response given: 4.36

Challenge: Look up RNAcompete 7-mer binding Z-score: UGUAGAU
Response given: 0.235

Challenge: Look up RNAcompete 7-mer binding Z-score: GUGACGA
Response given: 0.68

Challenge: Look up RNAcompete 7-mer binding Z-score: UAAGCCA
Response given: -0.712

Challenge: Look up RNAcompete 7-mer binding Z-score: AAUAGGG
Response given: 3.5

Challenge: Look up RNAcompete 7-mer binding Z-score: AGGGAAU
Response given: 3.2

Challenge: Look up RNAcompete 7-mer binding Z-score: GGGCGAC
Response given: 1.94

Challenge: Look up RNAcompete 7-mer binding Z-score: CGGGAAU
Response given: 1.31

Challenge: Look up RNAcompete 7-mer binding Z-score: CAUAACU
Response given: -0.592

Challenge: Look up RNAcompete 7-mer binding Z-score: GGGCGAA
Response given: 2.68

Challenge: Look up RNAcompete 7-mer binding Z-score: UUGGGAU
Response given: 1.9

Challenge: Look up RNAcompete 7-mer binding Z-score: AGGCAGG
Response given: 1.77

Challenge: Look up RNAcompete 7-mer binding Z-score: CUGGGUA
Response given: 1.78

Challenge: Look up RNAcompete 7-mer binding Z-score: CUGCUCU
Response given: -0.923

Challenge: Look up RNAcompete 7-mer binding Z-score: CGGGAAG
Response given: 2.07

Challenge: Look up RNAcompete 7-mer binding Z-score: CGUGCGA
Response given: -0.209

Challenge: Look up RNAcompete 7-mer binding Z-score: UGGGAAA
Response given: 2.49

Challenge: Look up RNAcompete 7-mer binding Z-score: GGGGGUA
Response given: 3.52

Challenge: Look up RNAcompete 7-mer binding Z-score: GUUAGGG
Response given: 3.65

Challenge: Look up RNAcompete 7-mer binding Z-score: GUUAGGU
Response given: 1.89

Challenge: Look up RNAcompete 7-mer binding Z-score: AUGUAGA
Response given: 0.243

Challenge: Look up RNAcompete 7-mer binding Z-score: UGUAAAG
Response given: 0.257

Challenge: Look up RNAcompete 7-mer binding Z-score: CGUAAAG
Response given: -0.0743

Challenge: Look up RNAcompete 7-mer binding Z-score: ACUUGGU
Response given: -0.267

Challenge: Look up RNAcompete 7-mer binding Z-score: UGUAGGA
Response given: 1.9

Challenge: Look up RNAcompete 7-mer binding Z-score: CGGGGUC
Response given: 1.9

Challenge: Look up RNAcompete 7-mer binding Z-score: CGUAGGG
Response given: 2.3

Challenge: Look up RNAcompete 7-mer binding Z-score: GGUAAAG
Response given: 3.35

Challenge: Look up RNAcompete 7-mer binding Z-score: UAUCUAC
Response given: -0.548

Challenge: Look up RNAcompete 7-mer binding Z-score: CUGGGAU
Response given: 0.964

Challenge: Look up RNAcompete 7-mer binding Z-score: CGGCUGA
Response given: -0.0306

Challenge: Look up RNAcompete 7-mer binding Z-score: UGGGAAG
Response given: 3.99

Challenge: Look up RNAcompete 7-mer binding Z-score: GCGGGUA
Response given: 2.5

Challenge: Look up RNAcompete 7-mer binding Z-score: CCCCCCA
Response given: -0.38

Challenge: Look up RNAcompete 7-mer binding Z-score: ACCUACA
Response given: -0.814
